Please provide measured relative cell viability for the entries that follow.
# Tested on: MDA-MB-231
# PROCEDURE_TEXT: relative cell viability, compound + erastin, vs DMSO (fraction of DMSO control); higher = less growth inhibition;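 further: viability read by CCK-8 kit in 96-well plates, part of a combination screen pairing lipid-metabolism-targeting compounds with erastin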
# ASSAY_SETUP: 72 h

>  <COMPOUND>
C=C(C)[C@@H]1CC[C@]2(CO)CC[C@]3(C)[C@H](CC[C@@H]4[C@@]5(C)CC[C@H](O)C(C)(C)[C@@H]5CC[C@]43C)[C@@H]12 [Betulin] + CCOc1ccccc1-n1c(C(C)N2CCN(C(=O)COc3ccc(Cl)cc3)CC2)nc2ccccc2c1=O

>  <REPORTED_RESULT>
0.32

$$$$
>  <COMPOUND>
Nc1ccc(O)c(C(=O)O)c1 [Mesalamine] + CCOc1ccccc1-n1c(C(C)N2CCN(C(=O)COc3ccc(Cl)cc3)CC2)nc2ccccc2c1=O

>  <REPORTED_RESULT>
0.585

$$$$
>  <COMPOUND>
CCCCCCCCCCC#CC#CCCCCCCCCC(=O)O [10,12-Tricosadiynoic acid] + CCOc1ccccc1-n1c(C(C)N2CCN(C(=O)COc3ccc(Cl)cc3)CC2)nc2ccccc2c1=O

>  <REPORTED_RESULT>
0.627

$$$$

For every listed record, write down its relative cell viability.
1. CC(C)=CCC(O)C1=CC(=O)c2c(O)ccc(O)c2C1=O (single isomer, unassigned; (+)) [(+)-Shikonin] + CCOc1ccccc1-n1c(C(C)N2CCN(C(=O)COc3ccc(Cl)cc3)CC2)nc2ccccc2c1=O
2. O=C1c2cc(CO)cc(O)c2C(=O)c2c(O[C@@H]3O[C@H](CO)[C@@H](O)[C@H](O)[C@H]3O)cccc21 [Aloe-emodin-8-O-beta-D-glucopyranoside] + CCOc1ccccc1-n1c(C(C)N2CCN(C(=O)COc3ccc(Cl)cc3)CC2)nc2ccccc2c1=O
3. O=C(CN1CCN(C(=O)c2ccco2)CC1)Nc1cc(C(F)(F)F)ccc1Cl + CCOc1ccccc1-n1c(C(C)N2CCN(C(=O)COc3ccc(Cl)cc3)CC2)nc2ccccc2c1=O

Result:
0.494
0.704
0.463

* * *

Please provide measured relative cell viability for the entries that follow.
# Tested on: HCC1937
# PROCEDURE_TEXT: relative cell viability, compound + erastin, vs DMSO (fraction of DMSO control); higher = less growth inhibition
# ASSAY_SETUP: 72 h
Structures can show the parent of a compound that is named as a salt.
Give bare numbers.

Some compounds with known relative cell viability results, for comparison:
>  <COMPOUND>
C[C@]12CC[C@@H](O)C[C@@H]1CC[C@@H]1[C@@H]2CC[C@]2(C)C(=O)CC[C@@H]12 [Androsterone] + CCOc1ccccc1-n1c(C(C)N2CCN(C(=O)COc3ccc(Cl)cc3)CC2)nc2ccccc2c1=O

>  <REPORTED_RESULT>
0.763

$$$$
>  <COMPOUND>
COc1ccc([C@@H]2OC[C@H]3[C@@H]2CO[C@@H]3c2ccc(O[C@@H]3O[C@H](CO)[C@@H](O)[C@H](O)[C@H]3O)c(OC)c2)cc1OC [Forsythin] + CCOc1ccccc1-n1c(C(C)N2CCN(C(=O)COc3ccc(Cl)cc3)CC2)nc2ccccc2c1=O

>  <REPORTED_RESULT>
0.718

$$$$
>  <COMPOUND>
CC(C)CCC[C@@H](C)[C@H]1CC[C@H]2[C@@H]3CC=C4C[C@@H](O)CC[C@]4(C)[C@H]3CC[C@]12C [Cholesterol] + CCOc1ccccc1-n1c(C(C)N2CCN(C(=O)COc3ccc(Cl)cc3)CC2)nc2ccccc2c1=O

>  <REPORTED_RESULT>
0.901

$$$$

# evaluate next
Query: Using the record for CCN(CC)C(=O)N1CCN(C)CC1 [Diethylcarbamazine citrate] + CCOc1ccccc1-n1c(C(C)N2CCN(C(=O)COc3ccc(Cl)cc3)CC2)nc2ccccc2c1=O , report its relative cell viability.
Result: 0.729

* * *

# Test system: HCC1937
# PROCEDURE_TEXT: relative cell viability, compound + erastin, vs DMSO (fraction of DMSO control); higher = less growth inhibition
# ASSAY_SETUP: 72 h
Please provide measured relative cell viability for the entries that follow.
One number for each entry.

>  <COMPOUND>
COc1cc(C(C)=O)ccc1O [Acetovanillone] + CCOc1ccccc1-n1c(C(C)N2CCN(C(=O)COc3ccc(Cl)cc3)CC2)nc2ccccc2c1=O

>  <relative cell viability>
0.508

$$$$

For every listed record, write down its relative cell viability.
1. O=C(ON1C(=O)CCC1=O)N1CCN(C(c2ccc(Cl)cc2)c2ccc(Cl)cc2)CC1 [Cravatt Reagent] + CCOc1ccccc1-n1c(C(C)N2CCN(C(=O)COc3ccc(Cl)cc3)CC2)nc2ccccc2c1=O
2. C=C(C)[C@@H]1CC[C@]2(CO)CC[C@]3(C)[C@H](CC[C@@H]4[C@@]5(C)CC[C@H](O)C(C)(C)[C@@H]5CC[C@]43C)[C@@H]12 [Betulin] + CCOc1ccccc1-n1c(C(C)N2CCN(C(=O)COc3ccc(Cl)cc3)CC2)nc2ccccc2c1=O
3. CCOc1cc(CC(=O)N[C@@H](CC(C)C)c2ccccc2N2CCCCC2)ccc1C(=O)O [Repaglinide] + CCOc1ccccc1-n1c(C(C)N2CCN(C(=O)COc3ccc(Cl)cc3)CC2)nc2ccccc2c1=O
4. C=CCc1ccc(O)c(-c2cc(CC=C)ccc2O)c1 [Magnolol] + CCOc1ccccc1-n1c(C(C)N2CCN(C(=O)COc3ccc(Cl)cc3)CC2)nc2ccccc2c1=O
5. O=C(CCCCCCCC(=O)NCCO)NCCO [Adelmidrol] + CCOc1ccccc1-n1c(C(C)N2CCN(C(=O)COc3ccc(Cl)cc3)CC2)nc2ccccc2c1=O

Result:
0.886
0.524
0.711
0.99
0.701

* * *

# Tested on: MDA-MB-231
# PROCEDURE_TEXT: relative cell viability, compound + erastin, vs DMSO (fraction of DMSO control); higher = less growth inhibition
# ASSAY_SETUP: 72 h
Counter-ions that a name gives are not always drawn.
MEASURED_ENDPOINT: relative cell viability

Some compounds with known relative cell viability results, for comparison:
>  <COMPOUND>
O=c1cc(-c2ccc(O)c(-c3c(O)cc(O)c4c(=O)cc(-c5ccc(O)cc5)oc34)c2)oc2cc(O)cc(O)c12 [Amentoflavone] + CCOc1ccccc1-n1c(C(C)N2CCN(C(=O)COc3ccc(Cl)cc3)CC2)nc2ccccc2c1=O

>  <relative cell viability>
0.715

$$$$
>  <COMPOUND>
Cc1c(C(=O)Nc2ccc(CO)cc2)nnn1Cc1ccc(Cl)c(Cl)c1 + CCOc1ccccc1-n1c(C(C)N2CCN(C(=O)COc3ccc(Cl)cc3)CC2)nc2ccccc2c1=O

>  <relative cell viability>
0.733

$$$$
>  <COMPOUND>
Nn1nnc2ccccc21 [1-Aminobenzotriazole] + CCOc1ccccc1-n1c(C(C)N2CCN(C(=O)COc3ccc(Cl)cc3)CC2)nc2ccccc2c1=O

>  <relative cell viability>
0.73

$$$$
>  <COMPOUND>
O=C(O)Cn1nnc(-c2cc(N3CCC(Oc4cc(F)ccc4Br)CC3)no2)n1 + CCOc1ccccc1-n1c(C(C)N2CCN(C(=O)COc3ccc(Cl)cc3)CC2)nc2ccccc2c1=O

>  <relative cell viability>
0.679

$$$$
>  <COMPOUND>
C=C(C)[C@@H]1CC[C@]2(C)CC[C@]3(C)[C@H](CC[C@@H]4[C@@]5(C)CCC(=O)C(C)(C)[C@@H]5CC[C@]43C)[C@@H]12 + CCOc1ccccc1-n1c(C(C)N2CCN(C(=O)COc3ccc(Cl)cc3)CC2)nc2ccccc2c1=O

>  <relative cell viability>
0.594

$$$$
>  <COMPOUND>
O=C(O)c1cccc(N=Nc2c(O)[nH]c3ccc(S(=O)(=O)NCc4ccc(F)cc4)cc23)c1 + CCOc1ccccc1-n1c(C(C)N2CCN(C(=O)COc3ccc(Cl)cc3)CC2)nc2ccccc2c1=O

>  <relative cell viability>
0.636

$$$$

For every listed record, write down its relative cell viability.
1. N#Cc1ccc(Oc2cccc(NC(=O)Nc3ccc(Cl)c(C(F)(F)F)c3)c2)cc1 + CCOc1ccccc1-n1c(C(C)N2CCN(C(=O)COc3ccc(Cl)cc3)CC2)nc2ccccc2c1=O
2. COc1ccc([C@@H]2OC[C@H]3[C@@H]2CO[C@@H]3c2ccc(O[C@@H]3O[C@H](CO)[C@@H](O)[C@H](O)[C@H]3O)c(OC)c2)cc1OC [Forsythin] + CCOc1ccccc1-n1c(C(C)N2CCN(C(=O)COc3ccc(Cl)cc3)CC2)nc2ccccc2c1=O
3. Nc1cccc(S(=O)(=O)N2CCCN(S(=O)(=O)c3ccc4c(c3)OCCO4)CC2)c1 + CCOc1ccccc1-n1c(C(C)N2CCN(C(=O)COc3ccc(Cl)cc3)CC2)nc2ccccc2c1=O
4. O=C(NN1CCCCC1)c1nn(-c2ccc(Cl)cc2Cl)c(-c2ccc(C#Cc3ccc(C(F)(F)F)cc3)s2)c1CNS(=O)(=O)N1CCCC1 + CCOc1ccccc1-n1c(C(C)N2CCN(C(=O)COc3ccc(Cl)cc3)CC2)nc2ccccc2c1=O
5. C=C[C@H]1CN2CC[C@H]1C[C@@H]2[C@@H](O)c1ccnc2ccc(OC)cc12 [Quinidine sulfate] + CCOc1ccccc1-n1c(C(C)N2CCN(C(=O)COc3ccc(Cl)cc3)CC2)nc2ccccc2c1=O
6. CC(=O)Nc1nc(C)c(S(=O)(=O)Nc2ccc(C(O)(C(F)(F)F)C(F)(F)F)cc2)s1 + CCOc1ccccc1-n1c(C(C)N2CCN(C(=O)COc3ccc(Cl)cc3)CC2)nc2ccccc2c1=O

Result:
[0.127, 0.754, 0.553, 0.395, 0.398, 1.1]
